Experiment: method code SF-C, from DOI: 10.1021/jm00213a023, PMID: 321779
ENDPOINT LABEL: logP

Lab note: Cc1cc(N)ccc1C(=O)O gave logP of 1.14

###

Assay: method code SF-AS, from DOI: 10.1021/jm00213a023, PMID: 321779
Dear colleague, classification is by logP, with ranges listed here: lower level = under 1, middle level = from 1 up to 2, upper level = 2 and over

Query: Record Nc1ccc(C(=O)O)cc1F — which class?
Reply: middle level

Query: Record Nc1ccc(C(=O)O)cc1O — which class?
Reply: lower level

Query: Record Nc1ccc(C(=O)O)c(Cl)c1 — which class?
Reply: middle level

Query: Record C=CCOc1cc(N)ccc1C(=O)O — which class?
Reply: middle level

Query: Record Nc1ccc(C(=O)O)cc1Br — which class?
Reply: upper level

Query: Record Nc1ccc(C(=O)O)c(F)c1 — which class?
Reply: middle level

Query: Record Nc1ccc(C(=O)O)c(I)c1 — which class?
Reply: middle level

Query: Record CCCCOc1cc(N)ccc1C(=O)O — which class?
Reply: middle level

Query: Record Nc1ccc(C(=O)O)c([N+](=O)[O-])c1 — which class?
Reply: middle level

Query: Record CC(C)CCOc1cc(N)ccc1C(=O)O — which class?
Reply: upper level

Query: Record CCCCCCCOc1cc(N)ccc1C(=O)O — which class?
Reply: upper level

Query: Record Nc1ccc(C(=O)O)c(Br)c1 — which class?
Reply: middle level

Query: Record COc1cc(N)ccc1C(=O)O — which class?
Reply: lower level

Query: Record Nc1ccc(C(=O)O)cc1N — which class?
Reply: lower level

Query: Record Nc1ccc(C(=O)O)cc1Cl — which class?
Reply: upper level

Query: Record CCCCCCCCOc1cc(N)ccc1C(=O)O — which class?
Reply: upper level

Query: Record Nc1ccc(C(=O)O)c(N)c1 — which class?
Reply: lower level

Query: Record CCCCCOc1cc(N)ccc1C(=O)O — which class?
Reply: upper level

Query: Record Nc1ccc(C(=O)O)cc1I — which class?
Reply: upper level

###

Experiment: method code SF, from DOI: 10.1021/jm00213a023, PMID: 321779
Can you tell me logP for the items I'm about to list?

Lab note: CCOc1cc(N)ccc1C(=O)O gave logP of 0.99

Lab note: Nc1ccc(C(=O)O)cc1N1C(=O)CSC1=S gave logP of 1.66

Reference for the values: the SangsterLogP compilation
